TARGET_DESC: HDAC1 (Homo sapiens)
Sequence (Q13547 whole entry): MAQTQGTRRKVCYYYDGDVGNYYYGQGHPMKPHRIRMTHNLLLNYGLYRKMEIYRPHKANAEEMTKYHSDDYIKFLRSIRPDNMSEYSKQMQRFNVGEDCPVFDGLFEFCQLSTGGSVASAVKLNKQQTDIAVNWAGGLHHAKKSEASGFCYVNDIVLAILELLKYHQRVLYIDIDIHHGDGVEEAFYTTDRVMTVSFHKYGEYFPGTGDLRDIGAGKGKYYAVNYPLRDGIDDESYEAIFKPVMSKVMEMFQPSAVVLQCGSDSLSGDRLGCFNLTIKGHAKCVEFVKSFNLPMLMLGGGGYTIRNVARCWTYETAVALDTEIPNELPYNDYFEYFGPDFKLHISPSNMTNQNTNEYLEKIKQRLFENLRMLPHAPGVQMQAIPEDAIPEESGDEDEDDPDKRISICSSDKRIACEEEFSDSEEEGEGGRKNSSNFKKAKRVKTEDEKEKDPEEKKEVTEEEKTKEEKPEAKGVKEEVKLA
pIC50: −log10 of the molar value.
ENDPOINT_NAME: pIC50

* Cn1c(SCCCCCC(=O)NO)nnc1-c1ccncc1 | 4.91
